Record form. Attribute: half-life. Fill in for each entry.
- ASSAY OVERVIEW: Human hepatocyte stability
- Format: in vitro ADME
- CONDITION DESCRIPTION: human hepatocytes; read-out: Hepatocytes (human) T1/2
Report only the number, with the unit min understood.

The recorded half-life for entry O=C(Cc1cc(-n2cc(Cl)c3cc(Cl)cc(Cl)c32)ccc1F)NCCO equals 20.3

The recorded half-life for entry O=C(Cc1cncc(-n2cc(Cl)c3cc(Cl)cc(Cl)c32)c1)N[C@@H]1COC[C@H]1O equals 52.2

---

- ASSAY SYSTEM: CYP1A2 (Homo sapiens)
- Construct: pre-incubation of the human liver microsomes with the test compound; tissue Corning; host or cells: human liver microsomes
- Sequence (P05177 whole entry): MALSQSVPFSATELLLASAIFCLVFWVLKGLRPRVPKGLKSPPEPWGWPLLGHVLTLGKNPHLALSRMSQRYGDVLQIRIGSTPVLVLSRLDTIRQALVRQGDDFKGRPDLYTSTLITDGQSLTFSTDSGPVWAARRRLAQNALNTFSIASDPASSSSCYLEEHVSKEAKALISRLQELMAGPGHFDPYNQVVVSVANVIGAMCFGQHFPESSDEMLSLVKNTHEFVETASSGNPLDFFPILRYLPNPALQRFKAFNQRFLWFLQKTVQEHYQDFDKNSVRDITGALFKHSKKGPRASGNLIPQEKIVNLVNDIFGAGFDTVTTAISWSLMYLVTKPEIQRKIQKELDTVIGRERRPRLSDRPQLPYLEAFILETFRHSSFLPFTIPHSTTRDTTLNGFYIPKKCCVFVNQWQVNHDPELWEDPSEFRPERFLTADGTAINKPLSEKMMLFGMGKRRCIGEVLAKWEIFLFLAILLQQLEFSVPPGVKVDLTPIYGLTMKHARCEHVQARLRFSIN
- ASSAY OVERVIEW: CYP inhibition / time-dependent inhibition, CYP1A2_Phenacetin
- Type: in vitro ADME
- CONDITION DESCRIPTION: role: inhibitor; (−)NADPH pre-incubation; substrate phenacetin; read-out: IC50 (−)NADPH CYP1A2_Phenacetin
pIC50: −log10 of the molar value.
MEASURED METRIC: pIC50

The recorded pIC50 for entry O=C(Cc1cncc(-n2cc(Cl)c3cc(Cl)cc(Cl)c32)c1)N[C@@H]1COC[C@H]1O equals < 4.30

---

Record form. Attribute: IC50. Fill in for each entry.
- ASSAY SYSTEM: hTRPV1 (Homo sapiens)
- Construct: CDS of NM_080704.4, inserted into the multiple cloning site of pcDNA3.1(+); host or cells: CHO/hKv7.2/3
- Sequence (Q8NER1 whole entry): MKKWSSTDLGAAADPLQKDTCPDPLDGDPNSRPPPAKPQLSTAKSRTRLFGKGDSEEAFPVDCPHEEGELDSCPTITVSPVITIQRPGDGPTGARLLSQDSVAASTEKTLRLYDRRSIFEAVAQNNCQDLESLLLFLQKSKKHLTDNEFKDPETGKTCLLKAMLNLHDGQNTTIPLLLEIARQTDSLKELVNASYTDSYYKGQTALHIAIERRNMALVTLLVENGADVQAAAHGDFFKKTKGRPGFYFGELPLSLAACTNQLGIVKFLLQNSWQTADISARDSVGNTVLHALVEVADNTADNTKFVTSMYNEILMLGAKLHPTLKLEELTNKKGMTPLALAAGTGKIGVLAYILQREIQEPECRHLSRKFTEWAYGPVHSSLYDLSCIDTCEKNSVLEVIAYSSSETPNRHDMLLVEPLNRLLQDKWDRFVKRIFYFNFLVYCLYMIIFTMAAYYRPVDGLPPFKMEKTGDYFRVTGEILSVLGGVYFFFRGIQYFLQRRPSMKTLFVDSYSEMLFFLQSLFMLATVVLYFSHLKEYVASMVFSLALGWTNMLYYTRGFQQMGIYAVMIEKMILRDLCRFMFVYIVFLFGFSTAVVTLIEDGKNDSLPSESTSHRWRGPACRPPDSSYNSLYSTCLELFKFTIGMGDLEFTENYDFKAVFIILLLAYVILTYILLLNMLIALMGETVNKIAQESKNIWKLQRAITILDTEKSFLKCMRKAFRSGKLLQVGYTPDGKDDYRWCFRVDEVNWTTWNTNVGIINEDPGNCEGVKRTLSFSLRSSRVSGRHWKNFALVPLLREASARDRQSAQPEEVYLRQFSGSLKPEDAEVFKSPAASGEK
- ASSAY OVERVIEW: TRPV1 HCS, Fluo-8 calcium flux, capsaicin activation, CHO cells expressing hTRPV1
- Assay type: cell-based
- Procedure: Cell culture: Chinese hamster ovary (CHO) cell-line cells with constitutive expression of human hTRPV1 channels (B'SYS GmbH, Switzerland) were cultured in F-12 nutrient mixture (Biological Industries) supplemented with 10% fetal bovine serum (Biological Industries) and 1% penicillin-streptomycin (Biological Industries) in a humidified 5% CO2 incubator at 37° C. To maintain the stable expression of hTRPV1, antibiotic selection (G418 500 μg/ml) was applied. […]
Please report the result as a number followed by the unit.

The recorded IC50 for entry CC(C)c1cc(Cl)cc(Cl)c1Sc1ccc(F)c(CC(=O)N[C@H]2C[C@H](O)C2)c1 equals 1.4 µM

The recorded IC50 for entry Cc1cn(-c2ccc(F)c(CC(=O)NCC(C)(C)O)c2)c2c(Cl)cc(Cl)cc12 equals 1.8 µM

The recorded IC50 for entry O=C(Cc1cncc(-n2cc(Cl)c3cc(Cl)cc(Cl)c32)c1)N[C@@H]1COC[C@H]1O equals 19 µM

The recorded IC50 for entry COC[C@@H](CO)NC(=O)Cc1cc(Sc2c(Cl)cc(F)cc2C(C)C)ccc1F equals 7.8 µM

The recorded IC50 for entry CC(C)c1cc(Cl)cc(Cl)c1Nc1ccc(F)c(CC(=O)NCC(C)(C)O)c1 [NH91, reference compound] equals 8 µM

---

- ASSAY OVERVIEW: CYP inhibition / time-dependent inhibition, CYP3A4_Testosterone
- Assay type: in vitro ADME
- CONDITION DESCRIPTION: human, liver microsomes, role: inhibitor; Table 9; substrate testosterone; read-out: CYP inhibition IC50 CYP3A-Testosterone
MEASURED METRIC: IC50
Please report the result as a number followed by the unit.

The recorded IC50 for entry O=C(Cc1nccc(-n2cc(Cl)c3cc(Cl)cc(Cl)c32)n1)NC1COCC1O (stereo not shown) equals 19.8 µM

---

- ASSAY SYSTEM: opioid mu receptor (Homo sapiens)
- Construct: Eurofins DiscoverX, USA (assay provider)
- Sequence (P35372 whole entry): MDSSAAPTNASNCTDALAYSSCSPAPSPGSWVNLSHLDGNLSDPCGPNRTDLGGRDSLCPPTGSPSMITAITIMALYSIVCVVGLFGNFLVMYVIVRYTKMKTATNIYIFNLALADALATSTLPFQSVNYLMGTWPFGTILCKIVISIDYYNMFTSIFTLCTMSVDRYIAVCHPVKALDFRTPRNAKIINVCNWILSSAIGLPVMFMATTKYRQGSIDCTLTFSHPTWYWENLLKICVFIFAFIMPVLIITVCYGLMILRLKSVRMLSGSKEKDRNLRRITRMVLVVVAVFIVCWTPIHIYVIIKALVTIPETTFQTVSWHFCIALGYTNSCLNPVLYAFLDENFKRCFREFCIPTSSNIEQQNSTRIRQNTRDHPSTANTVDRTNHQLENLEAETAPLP
- ASSAY OVERVIEW: Functional selectivity panel, opioid mu receptor
MEASURED METRIC: IC50 (µM)
Report only the number, with the unit µM understood.

The recorded IC50 for entry O=C(Cc1cncc(-n2cc(Cl)c3cc(Cl)cc(Cl)c32)c1)N[C@@H]1COC[C@H]1O [Compound 661] equals 6

---

- ASSAY SYSTEM: muscarinic m2 receptor (Homo sapiens)
- Construct: Eurofins DiscoverX, USA
- Sequence (P08172 whole entry): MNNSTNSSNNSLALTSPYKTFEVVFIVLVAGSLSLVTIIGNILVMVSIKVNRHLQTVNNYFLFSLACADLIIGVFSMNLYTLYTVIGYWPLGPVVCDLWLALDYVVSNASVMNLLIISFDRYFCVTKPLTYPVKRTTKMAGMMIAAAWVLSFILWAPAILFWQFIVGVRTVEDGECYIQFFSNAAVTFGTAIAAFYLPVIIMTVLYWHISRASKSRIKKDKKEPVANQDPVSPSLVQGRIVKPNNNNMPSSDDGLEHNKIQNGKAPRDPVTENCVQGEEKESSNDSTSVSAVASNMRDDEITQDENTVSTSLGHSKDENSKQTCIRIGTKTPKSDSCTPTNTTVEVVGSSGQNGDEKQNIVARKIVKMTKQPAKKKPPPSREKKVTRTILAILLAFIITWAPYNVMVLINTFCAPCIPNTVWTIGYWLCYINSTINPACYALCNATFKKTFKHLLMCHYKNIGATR
- ASSAY OVERVIEW: Functional selectivity panel, muscarinic m2 receptor
MEASURED METRIC: pIC50
Please report pIC50 as the negative decimal logarithm of the molar concentration, giving only the number.

The recorded pIC50 for entry O=C(Cc1cncc(-n2cc(Cl)c3cc(Cl)cc(Cl)c32)c1)N[C@@H]1COC[C@H]1O equals 5.30

---

- ASSAY OVERVIEW: Rat pharmacokinetics
- Type: in vivo
- CONDITION DESCRIPTION: rat, plasma, po, 10 mg/kg; read-out: PK: Oral BA
MEASURED METRIC: bioavailability

The recorded bioavailability for entry O=C(Cc1cc(-n2cc(Cl)c3cc(Cl)cc(Cl)c32)ccc1F)NCCO equals 25.3%

The recorded bioavailability for entry O=C(Cc1cncc(-n2cc(Cl)c3cc(Cl)cc(Cl)c32)c1)N[C@@H]1COC[C@H]1O equals 28.8%

The recorded bioavailability for entry Cc1cn(-c2ccc(F)c(CC(=O)NCC(C)(C)O)c2)c2c(Cl)cc(Cl)cc12 equals 10.6%

The recorded bioavailability for entry O=C(Cc1nccc(-n2cc(Cl)c3cc(Cl)cc(Cl)c32)n1)NCCO equals 79.7%

The recorded bioavailability for entry O=C(Cc1cc(-n2cc(C(F)(F)F)c3cc(Cl)cc(Cl)c32)ncn1)NCCO equals 73.4%

---

- ASSAY OVERVIEW: Kinetic solubility
- Format: physicochemical
- CONDITION DESCRIPTION: hhbs buffer, aqueous buffer, Tables 4 and 11; read-out: Kinetic Sol.
Record form. Attribute: solubility kinetic. Fill in for each entry.
Report only the number, with the unit mM understood.

The recorded solubility kinetic for entry O=C(Cc1nccc(-n2cc(Cl)c3cc(Cl)cc(Cl)c32)n1)NC1COCC1O (stereo not drawn) equals 57

The recorded solubility kinetic for entry O=C(Cc1cncc(-n2cc(Cl)c3cc(Cl)cc(Cl)c32)c1)N[C@@H]1COC[C@H]1O equals 37

The recorded solubility kinetic for entry Cc1cn(-c2ccc(F)c(CC(=O)NCC(C)(C)O)c2)c2c(Cl)cc(Cl)cc12 equals 3.4

---

- ASSAY OVERVIEW: Kinetic solubility
- Format: physicochemical
- CONDITION DESCRIPTION: hhbs buffer, aqueous buffer; read-out: Kinetic solubility
- Protocol: Solubility measurements were performed prior to each in vitro assay to ensure accurate dose response and reproducibility. Briefly, each compound was dissolved to 60 mM in DMSO and calibration curve was performed from 1.5-200 μM using absorbance spectra analysis and determination of λmax. Calibration curve served as the readout for all following assays. […]
Record form. Attribute: solubility kinetic. Fill in for each entry.

The recorded solubility kinetic for entry O=C(Cc1nccc(-n2cc(Cl)c3cc(Cl)cc(Cl)c32)n1)NC1COCC1O (centres unmarked) equals 57 µM

The recorded solubility kinetic for entry CC(C)c1cc(Cl)cc(Cl)c1Nc1ccc(F)c(CC(=O)NCC(C)(C)O)c1 [NH91, reference compound] equals 20 µM

---

- ASSAY OVERVIEW: Human liver microsome metabolic stability
- Assay type: in vitro ADME
- CONDITION DESCRIPTION: human liver microsomes
- Protocol: Liver microsomes which are subcellular particles derived from endoplasmic reticulum of hepatic cells were used for evaluating the tested compounds. These particles are rich in drug metabolizing enzymes, including the cytochrome p-450 family. Liver microsomes are a recommended test system for various in vitro drug metabolism and pharmacokinetics (DMPK) studies. […] Liver Microsome Metabolic Stability Assay (NADPH): The liver microsome stability assay was evaluated through pre-incubation with HLMs. […]
Record form. Attribute: CLint scaled at 1 µM. Fill in for each entry.
Report only the number, with the unit mL/min/kg understood.

The recorded CLint scaled at 1 µM for entry Cc1cn(-c2ccc(F)c(CC(=O)NCC(C)(C)O)c2)c2c(Cl)cc(Cl)cc12 equals 50

The recorded CLint scaled at 1 µM for entry O=C(Cc1cncc(-n2cc(Cl)c3cc(Cl)cc(Cl)c32)c1)N[C@@H]1COC[C@H]1O equals 64.8

---

- ASSAY SYSTEM: CYP2C9 (Homo sapiens, UniProt P11712)
- Construct: pre-incubation of the human liver microsomes with the test compound; tissue Corning; host or cells: human liver microsomes
- Sequence (P11712 whole entry): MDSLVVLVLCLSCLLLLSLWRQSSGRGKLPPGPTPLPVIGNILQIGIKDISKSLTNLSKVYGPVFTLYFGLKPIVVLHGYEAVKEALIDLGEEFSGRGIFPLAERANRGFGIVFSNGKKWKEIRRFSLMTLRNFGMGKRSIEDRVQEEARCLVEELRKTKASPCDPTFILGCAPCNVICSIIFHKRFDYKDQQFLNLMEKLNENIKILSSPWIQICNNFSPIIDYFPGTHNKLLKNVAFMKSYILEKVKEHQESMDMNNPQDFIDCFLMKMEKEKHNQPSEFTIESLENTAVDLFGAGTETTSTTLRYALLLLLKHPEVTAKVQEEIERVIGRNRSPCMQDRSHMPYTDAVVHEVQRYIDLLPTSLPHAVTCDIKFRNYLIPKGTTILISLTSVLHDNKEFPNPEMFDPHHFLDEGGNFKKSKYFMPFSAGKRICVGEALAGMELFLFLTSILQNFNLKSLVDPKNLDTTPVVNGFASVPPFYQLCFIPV
- ASSAY OVERVIEW: CYP inhibition / time-dependent inhibition, CYP2C9_Diclofenac
- Assay type: in vitro ADME
- CONDITION DESCRIPTION: role: inhibitor; Table 9; read-out: CYP inhibition IC50 CYP2C9
MEASURED METRIC: IC50
Please report the result as a number followed by the unit.

The recorded IC50 for entry O=C(Cc1nccc(-n2cc(Cl)c3cc(Cl)cc(Cl)c32)n1)NC1COCC1O (stereo not shown) equals 44.3 µM

---

- ASSAY OVERVIEW: In vitro micronucleus
- Assay type: cell-based
- CONDITION DESCRIPTION: hamster, cho-k1 cells; Plate 3 without S9, 24 hours; read-out: Cytotoxicity (%) Absolute EC50
- Procedure: The micronucleus assay was performed according to the regulatory guidelines. In brief, CHO-K1 cells were plated at 10000 cells/well in 3 plates and incubated In CHO-K1 growth medium (containing F12K, 10% FBS and 1% PS) overnight. As a control for the S9 treatment, plate No. 1, cells were treated with cyclophosphamide as a positive control, for 3 hours. […]
MEASURED METRIC: CC50 at 24 h

The recorded CC50 at 24 h for entry O=C(Cc1nccc(-n2cc(Cl)c3cc(Cl)cc(Cl)c32)n1)NC1COCC1O (stereo not shown) equals 81.2 µM
